Test: yeast display, Sf9 membrane polyspecificity reagent, FACS + sequencing; frameworks hold sequencing errors
Experimental Readout: polyreactivity (PSR sort gate)

Below are worked cases with known answers.
{"Monomer Sequence": "QVQLVESGGGLVQAGGSLRLSCASSGSTFSIYAMGWYRQAPGKERELVAGISGSGGSTYYADSVKGRFTISRDNAKNTVYLQMNSLKPEDTAVYYCAKRVLWGLDYWGQGTQVTVSS", "Reported": "low polyreactivity"}
{"Monomer Sequence": "QVQLVESGGGLVQAGGSLRISCAASGRTLTSNAMGWYRQAPGKERELVASITGSSSNTYYADSVKGRFTISRDNAKNTVYLQMNSLKPEDTAVSYCAAEVGFPWWRLDEYWGQGTQVTVSS", "Reported": "low polyreactivity"}
{"Monomer Sequence": "QVQLVESGGGLVQAGGSLRLSCAASGRTFFWYAMGWYRQAPGKERDLVAAIRGAGRTNYADSVKGRFTISRYNAKNTVYLQMNSLKPEDTAVYYCAAQHYPWRRYDYWGQGTQVTVSS", "Reported": "high polyreactivity"}
{"Monomer Sequence": "QGQHVESGGGLVQAGGSLPLSCAASGFIFNLYAMGWSRQAPGKERELVAAISSGGGTSYADSVKGRFTISRDNAKNTVYLQMNTLKPEDTADYYCAARAWYRVSAYDYWGQGTQVTVSS", "Reported": "high polyreactivity"}
{"Monomer Sequence": "QVQLVESGGGLVQAGGSLRISCAASGRTSHAYAMGWYRQAPGKERELVAAITRVTSTYYADSVKGRFTISRDNAKNTVYLQMNSLKPEDTAVYYCAAGKGYYRSDYWGQGTQVTVSS", "Reported": "low polyreactivity"}
{"Monomer Sequence": "QVQLVESGGGLVQAGGSLRLSCAASGSILQTNVMGWYRQAPGKEREFVAAIRWSTVSTYYADSVKGRFTISRDNAKNTVYLQMKSLKPEDTAVYYCASAKSWYSYKMDYWGQGTQVTVSS", "Reported": "low polyreactivity"}

q: For the sequence shown here, `QVQLVESGGGLVQAGGSLRLSCAASGRTFRYNAMGWYRQAPGKERELVASITSGGSTNYADSVKGRFTISRDNAKNTVYLQMNSLKPEDTAVYYCAADERRPYWLHSIGSGRPFDYWGQGTQVTVSS` , give the reported polyreactivity (PSR sort gate).
a: low polyreactivity

q: Subsequent entry: `QVQHVESGGGLVQAGGSLRLSCAASGRIIWWYAMRRYRQPPGKERELVAVIDDSVGITYFADSVKGRFTISRDNAKNTVYLQMNSLKPVDTAVNYCARNVNAQKVLGGFDSWGKGTQVTVSS`
a: low polyreactivity

q: Would you kindly repeat that for `QVQLVESGGGLVHAGGSLPLSCAASGLTFGSNPMRTYRQAPVQERELVAAISGGTSTNYADSVKGRFTISRDNAKNTVYLQMNSMTPEDTAVYYCAAAKRTADYASYWYVENDYWGQGSQVTVSS` ?
a: low polyreactivity

q: Entry `QVQLVESGGGLVQAGGSLRLSCAASGFTFYYYVMGWSRQAPGKERELVAAITRSGGSTYYADSVKGRFTISRDNAKNTVYLQMNSLKPEDTAVYYCNAYVPPKAASAAYDYWGQGTQVTVSS` please
a: high polyreactivity

q: Next record, please: `QVQLVESGGGLVQAGGSLRLSCAASGSIFVQNRMGWYRQAPGKERELVAAITFSGVDTYYADSVKGRFTISRDNAKNTVYLQMNSLKPEDTAVYYCAARVQHYLSTDDYWGQGTQVTVSS`
a: low polyreactivity

q: Continue with `QVQLVESGGGLVQAGGSLRLSCAASGFIFGYYAMGWYRQAPGKERELVAAISSGSITTYADSVKGRFTISRDNAKNTVYLQMNSLKPEDTAVYYCNAVRWFFTFVSSSSGVGHGYWGQGTQVTVSS`
a: low polyreactivity

q: What do we get for `QVQLVESWGGLVQAGGSLRLSCAASGIIFQNYDMGWYRQAPGKERELVAAITGSGGSTYYADSVKGRFTISRDNAKNIVYLQMNSLKPEDTAVYYCAASSFVVSGYNKYYEYGYWGQGTQVTVSS` ?
a: low polyreactivity

q: Would you mind doing `QVQLVESGGGLVQAGGSLRLSCAASGLIFYRYAMGWYRQAPGKERELVAVISWIGCNTYYADSVKGRFTISRDNAKNTVYLQMNSLKPEDTAVYYCAVATGPVSYRRYYWGQGTQVTVSS` as well?
a: high polyreactivity
